# Artifact signal: effect of the compound when it is incubated with bio-H3K4me2 peptide listing for each entry below
Assay: AlphaScreen counterscreen against bio-H3K4me2 peptide in the absence of enzyme (artifact signal);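 note: counterscreen run without enzyme against bio-H3K4me2 peptide to remove false positive hits from the JARID1 demethylase AlphaScreen screen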
Conditions: counterscreen, bio-H3K4me2 peptide, no enzyme
READOUT_TYPE: Artifact signal: effect of the compound when it is incubated with bio-H3K4me2 peptide

* O=C(O)c1cc2cc(Cc3ccccc3Cl)ccc2oc1=O | 5.15
* Cc1ccc([N+](=O)[O-])cc1N(CC(=O)Nc1ccc(Cl)c(C(F)(F)F)c1)S(C)(=O)=O | −1.84
* CN(C)CCCn1cc(C2=C(c3c[nH]c4ccccc34)C(=O)NC2=O)c2ccccc21 [YU154851, GF 109203X, reference compound] | 5.46
* Fc1ccccc1-c1nc2ncccc2o1 | −1.99
* CCOc1c(O)ccc(C=O)c1[N+](=O)[O-] | −1.09
* CN1C(=O)c2ccc(NC(=O)c3ccc4c(c3)OCO4)cc2C1=O | −2.69
* COc1ccccc1OCC(O)COC(N)=O (centres unmarked) [YU033898, METHOCARBAMOL, reference compound] | 18.66
* c1cc2c(cc1CNc1ccc(N3CCCC3)cc1)OCO2 | 27.95
* CN(C)c1ccc(C(=C2C=CC(=[N+](C)C)C=C2)c2ccc(N(C)C)cc2)cc1 [YU033841, GENTIAN VIOLET, reference compound] | 93.38
* CC1(C)C(=O)C2(CCCCC2)C(=O)OC1c1ccc(O)cc1 (centres unmarked) | 0.80
* CC(C)=CCc1c2c(c3occ(-c4ccc(O)c(O)c4)c(=O)c3c1O)C=CC(C)(C)O2 [YU033628, POMIFERIN, reference compound] | 13.55
* C=CC1=C(C(=O)O)N2C(=O)[C@@H](NC(=O)/C(=N\OCC(=O)O)c3csc(N)n3)[C@H]2SC1 [YU039791, CEFIXIME TRIHYDRATE, reference compound] | 96.65
* COc1cc2cc3c4cc(OC)c(OC)cc4cc[n+]3c(C)c2cc1OC.[Cl-] [YU155528, CORALYNE CHLORIDE, reference compound] | −5.30
* CCCCOc1ccc(NC(=O)CSc2nnnn2C)cc1 | −4.45
* O=C(O)CCCC[C@@H]1SC[C@@H]2NC(=O)N[C@@H]21 [YU034331, BIOTIN, reference compound] | 99.61
* O=C(NCCc1ccc(F)cc1)C(Cl)(Cl)Cl | −10.90
* COc1cccc2c1C(=O)c1c(O)c3c(c(O)c1C2=O)C[C@@](O)(C(=O)CO)C[C@@H]3O[C@H]1C[C@H](N)[C@@H](O)[C@H](C)O1.Cl (stereo in doubt) [YU039604, EPIRUBICIN HYDROCHLORIDE, reference compound] | 3.76
* Cc1cccc(OCC(=O)Nc2ccccc2OC(F)F)c1C | 4.29
* O=c1c2c(-c3ccc(Cl)cc3)csc2nc2n1CCC2 | −2.52
* CN(C)CCn1c2c(c3ccccc31)CCCn1cnnc1-2.Cl | −2.05
* Cc1cccc(C(=O)NNC(=S)NC(=O)CC(C)C)c1 | −8.22
* O=C(NCc1ccccn1)c1ccc(NC(=O)c2ccco2)cc1 | −6.86
* C=NC(C(=O)N[C@H]1C(=O)N2C1SC(C)(C)C2C(=O)O)c1ccccc1 (stereo in doubt) [YU034263, METAMPICILLIN SODIUM, reference compound] | 0.44
* O=c1cc(-c2cc(O)c(O)c(O)c2)oc2cc(O)cc(O)c12 [YU155308, HIERACIN, reference compound] | 92.13
* Cc1ccc(NC(=O)C2OCCc3ccccc32)cc1Cl (centres unmarked) | −6.36
* Cc1ccc(C)c(CN2CCN(Cc3ccccc3)CC2)c1 | −1.74

Hello, the source for this data is patent US20150272939A1, in case you need it.
